Assay: soluble on expression in E. coli; label from the status in PepcDB or PDB records
QUANTITY NAME: soluble on expression in E. coli

{"SEQUENCE": "MGSDKIHHHHHHMKVVPAQRCVYSFSANMAPVEEVYPGEQVVFETLDALGGSYDKIDFSKVNPATGPVFVNGVKPGDTLKVRIKRIELPRRGMIVTGKGFGVLGDEVEGFHTKELEIEKWAVLFDGVRIPIHPMVGVIGVAPQEGEYPTGTAHRHGGNMDTKEITENVTVHLPVFQEGALLALGDVHATMGDGEVCVSACEVPAKVVVEIDVSKEEIKWPVVETNDAYYIIVSLPDIEEALKEVTRETVWFIQRRKTIPFTDAYMLASLSVDVGISQLVNPAKTAKARIPKYIFTGV", "soluble on expression in E. coli": "soluble"}
{"SEQUENCE": "MGSDKIHHHHHHMKVLVTGHRGYIGAVLTPMLHQRDHDVTGLDSDIFRSCTFEGTLDDTPTMEEDVRDIVIDDLAGFDAVIHLAGLSNDPLGDYRPNLTQQINCEASVTLARLAKRAGVPRFLFASSCSNYGAAGSGFLTESAAFNPVTPYGISKVEVEHAVAPMADECFSPTFLRASTAYGLSPRIRFDLVLNNLTAWAFTTGQIYLKSDGSPWRPIVHVEDIARAYIAALEADRELVHNQAFNVGLTTENYQVREIADIVQAIVPNSRIEFAADAGPDTRCYRVDCNYIGRRLHAFKPQWTARRGVEQLYEAFCSVGLSLEDFEGERFKRIAHVKKLIRNGELDEDLRRVSVPTMALAV", "soluble on expression in E. coli": "not soluble"}
{"SEQUENCE": "TKEHRAIARKTASESFVLLKNEGVLPLSKKGTIAVVGPLANTRSNMPGTWSVAAVLDNAPSLVEGLREVVGDRAKVVTAKGSNLIGDADYEKRATMFGRELHRDNRTDRELLDEALKVAAGADVIVAALGESSEMSGESSSRTNLEMPDVQRALLQELLKTGKSVVLVLFTGRPLVLTWEEEHVPAILNVWFGGSEAAYAISDVLFGDVNPSGKLTATFPQNVGQIPLFYNHKNTGRPLQEGRWFEKFRSNYLDVSNEPLYPFGYGL", "soluble on expression in E. coli": "not soluble"}
{"SEQUENCE": "MGSDKIHHHHHHMYPKNTWYVACTPDEIATKPLGRQICGEKIVFYRARENQVAAVEDFCPHRGAPLSLGYVEDGNLVCGYHGLVMGCDGKTVSMPGQRVRGFPCNKTFAAVERYGFIWVWPGDQAQADPALIPHLEWAVSDEWAYGGGLFHIGCDYRLMIDNLMDLTHETYVHASSIGQKEIDEAPPVTTVTGDEVVTARHMENIMAPPFWRMALRGNGLADDVPVDRWQICRFTPPSHVLIEVGVAHAGKGGYHAEAQHKASSIVVDFITPESDTSIWYFWGMARNFAAHDQTLTDNIREGQGKIFSEDLEMLERQQQNLLAHPERNLLKLNIDAGGVQSRKVLERIIAQERAPQPQLIATSANPA", "soluble on expression in E. coli": "not soluble"}
{"SEQUENCE": "MKSSTMTSDYYKQTQIDQTLRLREVLKTLPPFAKDYFRAMEPKSSAKTRINYAYDIRVFFHFLLENNPIYKNYTMDQFRVQDLERIEPVDIEEYMEYLKVYKREDNEMITNGERGLKRKMSALRSFYSYYFKHQYIATNPTLLEHHHHHH", "soluble on expression in E. coli": "not soluble"}
{"SEQUENCE": "MSLTPLMVNGILGESVTLPLEFPAGEKVNFITWLFNETSLAFIVPHETKSPEIHVTNPKQGKRLNFTQSYSLQLSNLKMEDTGSYRAQISTKTSAKLSSYTLRILRQLRNIQVTNHSQLFQNMTCELHLTCSVEDADDNVSFRWEALGNTLSSQPNLTVSWDPRISSEQDYTCIAENAVSNLSFSVSAQKLCE", "soluble on expression in E. coli": "soluble"}

Could you share which soluble on expression in E. coli value was measured for MGHHHHHHSHLPGNTRKMDKTTVLEKVIGFLQKHNEVSAQTEICDIQQDWKPSFLSNEEFTQLMLEALDGFIIAVTTDGSIIYVSDSITPLLGHLPSDVMDQNLLNFLPEQEHSEVYKILSSHMLVTDSPSP ?
soluble

Please report the recorded soluble on expression in E. coli for MGSDKIHHHHHHMRVITVAGPPSVGKTSVVVKTATTLAAQGHRLGIVKFDSLSTSDDQVYRRAGLPVVVGLSGNVCPDHFFVSNIDDCVDWGRTHGVDILVAESAGLCNRCSPHVQGVQAICVVDNLSGVHTPRKIGPMLKLADVVVITKGDIVSQAEREVFAYNVRLANPRAQVMQFHGITGQGASDLAARMLCAPVVDALEGRRLRFSMPSAVCPYCIGETAIGVDHQRGNVRKMSFAEPAR .
not soluble

Reported soluble on expression in E. coli, sequence MDAGDASRLGESLDAVSAAFQSRVMELQELVLARNMYPATAIPDLAAVDVSLTAMEAQLQAVRRRLQEEREAFPKAKKLVQQSLKQQRRLQLMLANMPTGMREDVFATPLEHNSSMMFPESLNFSSAVPEVRDHDLKIKEEPTAPPKKKGRGPAPRWYISTEELDSLSSYMRGRLTLEKVNIAINEVASYADGNAHLVACPKKKLSEDTWEKALELRDIAARESVKGRHFFLETDIKGPGLKLDTTGKAILTVRASTIMLYMLPLKLPYWIE : ____
soluble

The origin of these recorded values is the DeepSol protein solubility set.
